Data provenance is patent US20100317528A1.

- Tested on: redroot pigweed (Amaranthus retroflexus L.)
- experiment.summary: Test Example 2: soil application on the day after sowing, redroot pigweed
- Assay type: in vivo
- setup.conditions: Amaranthus retroflexus, 250 g/ha active ingredient, observed 19th to 28th day after application, read-out: Growth inhibition rate (%) Redroot pigweed
# maps each entry to its inhibition at 250 g/ha

[
  {
    "structure.notation": "COC(COc1c(S(C)(=O)=O)ccc(C(=O)c2cnn(C)c2O)c1C)OC",
    "units.of.measure": "%",
    "inhibition at 250 g/ha": 100
  },
  {
    "structure.notation": "Cc1c(C(=O)c2cnn(C)c2O)ccc(S(C)(=O)=O)c1OC(F)F",
    "units.of.measure": "%",
    "inhibition at 250 g/ha": 100
  },
  {
    "structure.notation": "COCCOc1c(S(C)(=O)=O)ccc(C(=O)c2cnn(C)c2O)c1C",
    "units.of.measure": "%",
    "inhibition at 250 g/ha": 100
  },
  {
    "structure.notation": "CCn1ncc(C(=O)c2ccc(S(C)(=O)=O)c(C(=O)OC)c2C)c1O",
    "units.of.measure": "%",
    "inhibition at 250 g/ha": 100
  }
]
